These entries and their values trace back to paper PMC3546861.

Target: HLA-A*0201 molecule of T2 cells (Homo sapiens, UniProt P04439, D140Y/D185E/D98H/E176V/E277Q/G131W/G231S/I119V/I121R/I166T/I218V/L300P/L318F/N151K/N90K/P208A/P217A/Q86G/Q94H/R138H/R169H/T345S)
Test: MHC-peptide complex stabilization assay on T2 cells
Format: binding
Set-up: key: FI = (MFI sample − MFI background) / MFI background
Conditions: peptide 100 μg (100 μg/ml), serum-free RPMI 1640, 1 h 37°C, 12 h 26°C, 3 h 37°C, FITC anti-HLA-A*0201, flow cytometry, FI = (MFI sample - MFI background)/MFI background
Threshold rule: FI (fluorescence index) greater than or equal to 0.8 is Y; below that, N.

>  <Macromolecule sequence>
QLAVTIMAI [D2V-NS2a144-152, D2V variant peptide of D1V-NS2a144-152, nonapeptide …]

>  <Label class>
Y

$$$$
>  <Macromolecule sequence>
AILTVVAAT [D2V-NS4a140-148, D2V variant peptide of D1V-NS4a140-148, nonapeptide …]

>  <Label class>
Y

$$$$
>  <Macromolecule sequence>
QLWTALVSL [D3V-NS2a144-152, D3V variant peptide of D1V-NS2a144-152, nonapeptide …]

>  <Label class>
Y

$$$$
>  <Macromolecule sequence>
MLLALIAVL [D1V-NS4a56-64]

>  <Label class>
N

$$$$
>  <Macromolecule sequence>
LMMRTTWAL [D2V-NS4b182-190, D2V variant peptide of D1V-NS4b183-191, nonapeptide …]

>  <Label class>
Y

$$$$
>  <Macromolecule sequence>
LLMRTTWAF [D4V-NS4b179-187, D4V variant peptide of D1V-NS4b183-191, nonapeptide …]

>  <Label class>
Y

$$$$
>  <Macromolecule sequence>
LVMAFMAFL [D1V-C46-54]

>  <Label class>
N

$$$$

###

Biological target: HLA-A*0201 molecule of T2 cells (Homo sapiens, UniProt P04439, D140Y/D185E/D98H/E176V/E277Q/G131W/G231S/I119V/I121R/I166T/I218V/L300P/L318F/N151K/N90K/P208A/P217A/Q86G/Q94H/R138H/R169H/T345S)
Test: MHC-peptide complex stabilization assay on T2 cells
Format: binding
Parameters: key: FI = (MFI sample − MFI background) / MFI background
Settings: peptide 10 μg (10 μg/ml), serum-free RPMI 1640, 1 h 37°C, 12 h 26°C, 3 h 37°C, FITC anti-HLA-A*0201, flow cytometry, FI = (MFI sample - MFI background)/MFI background
Item-by-item account of FI (fluorescence index)

>  <Macromolecule sequence>
QVGTLALSL [D4V-NS2a143-151, D4V variant peptide of D1V-NS2a144-152, nonapeptide …]

>  <FI (fluorescence index)>
0.2

$$$$
>  <Macromolecule sequence>
QLWTALVSL [D3V-NS2a144-152, D3V variant peptide of D1V-NS2a144-152, nonapeptide …]

>  <FI (fluorescence index)>
0.45

$$$$
>  <Macromolecule sequence>
AMVLSIVSL [D1V-NS2a169-177]

>  <FI (fluorescence index)>
0.05

$$$$
>  <Macromolecule sequence>
GILTLAAIV [D3V-NS4a140-148, D3V variant peptide of D1V-NS4a140-148, nonapeptide …]

>  <FI (fluorescence index)>
0.15

$$$$
>  <Macromolecule sequence>
LVMAFMAFL [D1V-C46-54]

>  <FI (fluorescence index)>
0.02

$$$$
>  <Macromolecule sequence>
LLMRTTWAF [D4V-NS4b179-187, D4V variant peptide of D1V-NS4b183-191, nonapeptide …]

>  <FI (fluorescence index)>
0.59

$$$$
>  <Macromolecule sequence>
MLLALIAVL [D1V-NS4a56-64]

>  <FI (fluorescence index)>
0.05

$$$$
>  <Macromolecule sequence>
LMMRTTWAL [D2V-NS4b182-190, D2V variant peptide of D1V-NS4b183-191, nonapeptide …]

>  <FI (fluorescence index)>
3.42

$$$$
>  <Macromolecule sequence>
AILTVVAAT [D2V-NS4a140-148, D2V variant peptide of D1V-NS4a140-148, nonapeptide …]

>  <FI (fluorescence index)>
0.2

$$$$
>  <Macromolecule sequence>
LLMRTSWAL [D3V-NS4b182-190, D3V variant peptide of D1V-NS4b183-191, nonapeptide …]

>  <FI (fluorescence index)>
0.65

$$$$
>  <Macromolecule sequence>
TILTIIGLI [D4V-NS4a140-148, D4V variant peptide of D1V-NS4a140-148, nonapeptide …]

>  <FI (fluorescence index)>
0.3

$$$$
>  <Macromolecule sequence>
QLWAALLSL [D1V-NS2a144-152]

>  <FI (fluorescence index)>
0.22

$$$$
>  <Macromolecule sequence>
LLMRTTWAL [D1V-NS4b183-191]

>  <FI (fluorescence index)>
0.4

$$$$
>  <Macromolecule sequence>
QLAVTIMAI [D2V-NS2a144-152, D2V variant peptide of D1V-NS2a144-152, nonapeptide …]

>  <FI (fluorescence index)>
0.39

$$$$
